- ASSAYED TARGET: UmpK (UMP/CMP kinase) (Dictyostelium discoideum, UniProt P20425)
- Construct: gene pyrK; recombinant, expressed and purified as in Supporting Information; details not in main text
- Sequence (P20425 whole entry): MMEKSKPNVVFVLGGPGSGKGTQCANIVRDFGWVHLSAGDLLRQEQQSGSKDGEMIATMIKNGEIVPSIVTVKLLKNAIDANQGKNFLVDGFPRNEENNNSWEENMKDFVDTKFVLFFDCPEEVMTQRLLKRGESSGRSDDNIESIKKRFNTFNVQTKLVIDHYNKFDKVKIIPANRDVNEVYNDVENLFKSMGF
- ASSAY: biochemical
- Design: fluorescence titration, equilibrium binding / displacement of fluorescent MANT-ADP
- CONDITION LABEL: with CMP; 5 mM MgCl2, 250 uM second nucleotide present; read-out: UmpK wild-type (5 mM MgCl2) in the presence of 250 uM second nucleotide
MEASURED PARAMETER: Kd (µM)

COMPOUND	Kd (µM)
Nc1ncnc2c1ncn2[C@@H]1O[C@H](COP(=O)(O)OP(=O)(O)O)[C@@H](O)[C@H]1O [ADP]	10
Nc1ncnc2c1ncn2[C@@H]1O[C@H](COP(=O)(O)OP(=O)(O)OP(=O)(O)O)[C@@H](O)[C@H]1O [ATP]	7.3
